target or system: protein kinase A, catalytic subunit
protocol text: cell-based or functional assay
Where no end group is shown, it is not given here. Side-chain parts run from the residue outwards. [ ]: non-standard residue; d: D form. The star is where a group is joined. X1 = 5‑aminoethylsulfonamide isoquinoline, O=S(=O)(NCCN*)c1cccc2cnccc12; hLeu = CC(C)CC[C@H](N)C(=O)O; Nle = CCCC[C@H](N)C(=O)O; Orn = NCCC[C@H](N)C(=O)O; Dab = NCC[C@H](N)C(=O)O
Please go through the items and note down their % inhibition of kinase activity at 1 µM; PKA-kinase Assay 2.
Numeric only. Scale: %

What value of measured % inhibition of kinase activity at 1 µM; PKA-kinase Assay 2 is listed for RPR[Orn]E(X1)[Orn]F (not fully specified (C-terminus)) [TY-60020-11] ? 96

What value of measured % inhibition of kinase activity at 1 µM; PKA-kinase Assay 2 is listed for RPR[Nle]E([Gly-X1])[Dab]F (not fully specified (C-terminus)) [TY-60020-57] ? 96

What value of measured % inhibition of kinase activity at 1 µM; PKA-kinase Assay 2 is listed for RPR[Nle]E([Gly-X1])[Orn]F (not fully specified (C-terminus)) [TY-60020-59] ? 93

What value of measured % inhibition of kinase activity at 1 µM; PKA-kinase Assay 2 is listed for RPR[Orn]E(X1)[Dab]F (not fully specified (C-terminus)) [TY-60020-9] ? 97

What value of measured % inhibition of kinase activity at 1 µM; PKA-kinase Assay 2 is listed for RPR[Nle]E([Gly-X1])[Dab][hLeu] (not fully specified (C-terminus)) [TY-60020-58] ? 99

What value of measured % inhibition of kinase activity at 1 µM; PKA-kinase Assay 2 is listed for RPR[Orn]E([Gly-X1])[Dab][hLeu] (not fully specified (C-terminus)) [TY-60020-42] ? 99

What value of measured % inhibition of kinase activity at 1 µM; PKA-kinase Assay 2 is listed for RPR[Orn]E(X1)[Dab][hLeu] (not fully specified (C-terminus)) [TY-60020-10] ? 94
